Target: serotonin 5-HT2C receptor (Homo sapiens, UniProt P28335, I156V/I160V/N158S)
Sequence (P28335 33-458 I156V/N158S/I160V limits assumed): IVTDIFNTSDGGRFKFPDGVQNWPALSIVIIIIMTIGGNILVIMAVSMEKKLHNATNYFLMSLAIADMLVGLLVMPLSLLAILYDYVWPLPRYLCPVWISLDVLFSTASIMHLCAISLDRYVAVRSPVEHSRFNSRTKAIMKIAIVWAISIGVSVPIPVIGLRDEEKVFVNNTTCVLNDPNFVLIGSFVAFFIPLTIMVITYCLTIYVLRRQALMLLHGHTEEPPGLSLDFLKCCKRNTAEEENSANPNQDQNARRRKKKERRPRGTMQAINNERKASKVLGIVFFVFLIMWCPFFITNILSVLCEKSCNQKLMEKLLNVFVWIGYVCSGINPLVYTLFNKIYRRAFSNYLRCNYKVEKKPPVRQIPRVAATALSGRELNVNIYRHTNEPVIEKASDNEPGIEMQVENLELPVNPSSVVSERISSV
Assay: cell-based
Conditions: CHO, read-out: ratio to maximum response by 5-HT (1 μM)
Counter-ions that a name gives are not always drawn.
endpointName: activation at 1 µM

Below are worked cases with known answers.
• FC(F)(F)c1ccccc1-c1cccc2c1OCCNC2 [Example 12, hydrochloride] = 93.6%
• c1cc2c(c(C3CC3)c1)OCCNC2 [Example 64, hydrochloride] = 94.6%
• Cc1ccccc1-c1cccc2c1OCCNC2 [Example 11, hydrochloride] = 92.7%
• CC(c1cccc2c1OCCNC2)C(F)(F)F (stereo not shown) [Example 59, hydrochloride] = 95.2%

Next item in the queue.
Ask: Name the recorded activation at 1 µM of the compound listed here: CCN(C)c1ccc2c(c1)OCCNC2 [Example 6, dihydrochloride]
Reply: 102%
